Where do these numbers come from? They come from ChEMBL document CHEMBL5058577.

System: U2OS
TEST PROTOCOL: Multiplex assay against U2OS
Type: toxicity, cell-based
ASSAY SETUP: human, 24 h, 1 µM, compound concentration 1 uM, replicate 1
MEASURED QUANTITY: Population Apoptotic (%)
Number in %, nothing else.

Example results:
>>> endpoint_result("Cc1cccc(NC(=O)CN2CCC(c3ccccn3)CC2)c1.Cl.Cl")
76
>>> endpoint_result("NCCc1cn(S(=O)(=O)c2c(Cl)nc3sccn23)c2ccccc12.O=C(O)C(=O)O")
69
>>> endpoint_result("COC[C@@H](c1ccc(C(F)(F)F)cc1)N1CCN(C2(C)CCN(C(=O)c3c(C)ncnc3C)CC2)C[C@@H]1C.O=C(O)/C=C\\C(=O)O [VICRIVIROC MALEATE]")
77
>>> endpoint_result("COc1ccccc1N1CCN(C[C@@H](C(=O)NC(C)(C)C)c2ccccc2)CC1.Cl.Cl")
68

Input: Fill in the blank: the reported Population Apoptotic (%) of `CN1CCN(c2cc(-c3ccccc3)nc(N)n2)CC1` is ____.
Output: 86

Input: Fill in the blank: the reported Population Apoptotic (%) of `C[C@H](N)COC(=O)[C@@H](CCCCN)NC(=O)Cc1c(-c2ccc3ccccc3c2)[nH]c2c1ccc1ccccc12` is ____.
Output: 83

Input: Fill in the blank: the reported Population Apoptotic (%) of `N#Cc1c(Oc2cccc(OS(=O)(=O)CCCC(F)(F)F)c2)cccc1C(F)(F)F` is ____.
Output: 75

Input: Fill in the blank: the reported Population Apoptotic (%) of `CN[C@@H](C)C(=O)N[C@H](C(=O)N1CCC[C@H]1C(=O)Nc1snnc1-c1ccccc1)C1CCCCC1` is ____.
Output: 72

Input: Fill in the blank: the reported Population Apoptotic (%) of `Cc1c(CC(=O)O)c2cccnc2n1Cc1ccc(S(C)(=O)=O)cc1C(F)(F)F` is ____.
Output: 80

###

Overview of recorded Total Cell Count for various compounds
Tested on: HEK-293T
TEST PROTOCOL: Multiplex assay against HEK293T
Assay type: toxicity, cell-based
ASSAY SETUP: human, 24 h, 10 µM, compound concentration 10 uM, replicate 2
// keep it numeric: no unit symbol after the value

Example results:
>>> endpoint_result("Cc1c(CC(=O)O)c2cccnc2n1Cc1ccc(S(C)(=O)=O)cc1C(F)(F)F")
334
>>> endpoint_result("O=C(CCCc1ccccc1)Nc1nc2ccccc2c(=O)s1")
444
>>> endpoint_result("Cc1cnc(-c2cc(N3CCN(C(=O)CCS(C)(=O)=O)CC3)ncc2Cl)c(C)c1")
392
>>> endpoint_result("COc1ccccc1N1CCN(C[C@@H](C(=O)NC(C)(C)C)c2ccccc2)CC1.Cl.Cl")
251
>>> endpoint_result("CC(=O)Nc1cccc2c1c(Sc1ccc(Cl)cc1)c(C)n2CC(=O)O")
387
>>> endpoint_result("CN(C)C(=O)Cn1cc(-c2ccc(-c3cncc4ccccc34)cc2)cn1")
362
>>> endpoint_result("Cl.NCCc1ccc(O)c(O)c1 [DOPAMINE HYDROCHLORIDE]")
533
>>> endpoint_result("COc1cccc2c1c(NS(=O)(=O)c1ccc(Cl)s1)nn2Cc1cccc(CNC(=O)C(C)(C)O)c1")
384
>>> endpoint_result("CCCCCC(O)/C=C/[C@H]1C(=O)CC(O)C1C/C=C\\CCCC(=O)O (stereo not given in full)")
388

Input: Fill in the blank: the reported Total Cell Count of `N#Cc1c(Oc2cccc(OS(=O)(=O)CCCC(F)(F)F)c2)cccc1C(F)(F)F` is ____.
Output: 312
